Values were extracted from ChEMBL document CHEMBL1275403.

experimental-protocol: Cytotoxicity against mouse ScGT1 cells assessed as cell viability at EC50 after 5 days by calcein-AM assay
Assay type: cell-based
measurement-parameters: read-out: INH
measured-parameter: viability at 120 h

{"query-smiles": "O=C1C=C(NCCCNCCCNc2ccnc3cc(Cl)ccc23)C(=O)C=C1NCCCNCCCNc1ccnc2cc(Cl)ccc12", "viability at 120 h": "91.3%"}
{"query-smiles": "COc1ccc2nc3cc(Cl)ccc3c(NCCCN3CCN(CCCNc4c5ccc(Cl)cc5nc5ccc(OC)cc45)CC3)c2c1", "viability at 120 h": "92.4%"}
{"query-smiles": "O=C1C=C(NCCCNc2ccnc3cc(Cl)ccc23)C(=O)C=C1NCCCNc1ccnc2cc(Cl)ccc12", "viability at 120 h": "99.6%"}
{"query-smiles": "O=C1C=C(NCCCNc2c3c(nc4cc(Cl)ccc24)CCCC3)C(=O)C=C1NCCCNc1c2c(nc3cc(Cl)ccc13)CCCC2", "viability at 120 h": "102%"}

Proceed to the following item.
Q) Sample `COc1ccc2nc3cc(Cl)ccc3c(NCCCNC3=CC(=O)C(NCCCNc4c5ccc(Cl)cc5nc5ccc(OC)cc45)=CC3=O)c2c1` — what was its viability at 120 h?
A) 75.2%

###

experimental-protocol: Inhibition of scrapie prion protein-mediated lag phase prion fibril formation after 72 hrs by amyloid seeding assay
TIME values, listed per item
Record the value in h, omitting the unit from your answer.

{"query-smiles": "O=C1C=C(NCCCNc2ccnc3cc(Cl)ccc23)C(=O)C=C1NCCCNc1ccnc2cc(Cl)ccc12", "value": 53}
{"query-smiles": "O=C1C=C(NCCCNc2c3c(nc4cc(Cl)ccc24)CCCC3)C(=O)C=C1NCCCNc1c2c(nc3cc(Cl)ccc13)CCCC2", "value": 57}
{"query-smiles": "COc1ccc2nc3cc(Cl)ccc3c(NCCCN3CCN(CCCNc4c5ccc(Cl)cc5nc5ccc(OC)cc45)CC3)c2c1", "value": 55}
{"query-smiles": "O=C1C=C(NCCCNCCCNc2ccnc3cc(Cl)ccc23)C(=O)C=C1NCCCNCCCNc1ccnc2cc(Cl)ccc12", "value": 40}

Q) Sample `COc1ccc2nc3cc(Cl)ccc3c(NCCCNC3=CC(=O)C(NCCCNc4c5ccc(Cl)cc5nc5ccc(OC)cc45)=CC3=O)c2c1` — what was its TIME?
A) 45

###

experimental-protocol: Cytotoxicity against mouse ScGT1 cells assessed as cell viability at 1 uM after 5 days by calcein-AM assay
Format: cell-based
measurement-parameters: read-out: Activity
measured-parameter: viability at 120 h, 1 µM (%)
Record the value in %, omitting the unit from your answer.

{"query-smiles": "COc1ccc2nc3cc(Cl)ccc3c(NCCCNCCCNC3=CC(=O)C(NCCCNCCCNc4c5ccc(Cl)cc5nc5ccc(OC)cc45)=CC3=O)c2c1", "unit-name": "%", "viability at 120 h, 1 µM": 1.5}

Q) Sample `O=C1C=C(NCCNc2c3c(nc4ccccc24)CCCC3)C(=O)C=C1NCCNc1c2c(nc3ccccc13)CCCC2` — what was its viability at 120 h, 1 µM?
A) 108

Q) Here is the next compound: `O=C1C=C(NCCCNCCCNc2c3c(nc4ccccc24)CCCC3)C(=O)C=C1NCCCNCCCNc1c2c(nc3ccccc13)CCCC2`
A) 95.4

Q) Here is the next compound: `COc1ccc2nc3cc(Cl)ccc3c(NCCCN3CCN(CCCNc4c5ccc(Cl)cc5nc5ccc(OC)cc45)CC3)c2c1`
A) 75.6

Q) Here is the next compound: `O=C1C=C(NCCCNc2c3c(nc4cc(Cl)ccc24)CCCC3)C(=O)C=C1NCCCNc1c2c(nc3cc(Cl)ccc13)CCCC2`
A) 78.6
